Hello, the source for this data is PubChem BioAssay (NCATS), in case you need it.

Molecular target: Calcium and integrin-binding protein 1 (Homo sapiens) (UniProt Q99828)
Sequence (Q99828 whole entry, looked up): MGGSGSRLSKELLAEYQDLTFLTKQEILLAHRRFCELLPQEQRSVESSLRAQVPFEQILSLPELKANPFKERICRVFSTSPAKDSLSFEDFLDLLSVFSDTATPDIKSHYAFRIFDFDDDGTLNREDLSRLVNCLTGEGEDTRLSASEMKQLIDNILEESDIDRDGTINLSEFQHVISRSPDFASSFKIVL
Assay: Primary qHTS for Identification of Calcium Integrin Binding Protein 1 (CIB1) Competitor (AID 1508620);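 note: GST tagged CIB1 binding a fluorescein labelled alphaIIb integrin peptide tracer; top concentration of the series differs between compounds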
Conditions: CIB1-GST / FITC-alphaIIb peptide fluorescence polarization; series mostly up to 114 µM
Records with an inconclusive call do not appear. The source made the active and inactive calls. Calls come from the whole dose curve; as a rule, active = well fitted inhibition curve with a large enough effect; inconclusive = small, poorly fitted or top-dose-only effect; inactive = flat fitted curve, though single readings scatter. Where a SMILES comes first, the peptide text is derived from it. [ ]: non-standard residue; d: D form. pGlu = O=C1CC[C@@H](C(=O)O)N1

{"compound": "O=C1NC2CCCCN2C12CCN(CCCN1c3ccccc3CCc3ccc(Cl)cc31)CC2 (stereo not drawn)", "measurement_target": "Calcium and integrin-binding protein 1 (Homo sapiens) (UniProt Q99828)", "outcome": "inactive"}
{"compound": "CCNC(=O)[C@@H]1CCCN1C(=O)[C@H](CCCN=C(N)N)NC(=O)[C@H](CC(C)C)NC(=O)CNC(=O)[C@H](Cc1ccc(O)cc1)NC(=O)[C@H](CO)NC(=O)[C@H](Cc1c[nH]c2ccccc12)NC(=O)[C@H](Cc1cnc[nH]1)NC(=O)[C@@H]1CCC(=O)N1 ([pGlu]HWSYGLRP-NHEt)", "measurement_target": "Calcium and integrin-binding protein 1 (Homo sapiens) (UniProt Q99828)", "outcome": "inactive"}
{"compound": "O=C1Nc2ccccc2C1(c1ccc(O)cc1)c1ccc(O)cc1", "measurement_target": "Calcium and integrin-binding protein 1 (Homo sapiens) (UniProt Q99828)", "outcome": "inactive"}

----------
Test system: UISO
Experiment: qHTS assay to identify novel small-molecules to repurpose for Merkel cell carcinoma treatment (AID 1296009); note: nearly all actives have a fitted effect of over 60% in size
Settings: MCC and control cell lines, CellTiter-Glo viability, 72 h; series mostly up to 46 µM
Results filed as inconclusive are left out. Active and inactive are the calls of the source. Calls come from the whole dose curve; as a rule, active = well fitted inhibition curve with a large enough effect; inconclusive = small, poorly fitted or top-dose-only effect; inactive = flat fitted curve, though single readings scatter.
measurement_label: outcome

Study these solved cases before continuing.
{"compound": "CN1Cc2cc(C(=O)N3CCC(C4CCNCC4)CC3)ccc2NC(CC(=O)O)C1=O (configuration not stated)", "measurement_target": "UISO", "outcome": "inactive"}
{"compound": "C=C(C)C(=O)OCC(O)CO (configuration not stated)", "measurement_target": "UISO", "outcome": "inactive"}
{"compound": "C[C@@H]1C[C@H]2[C@@H]3CCC4=CC(=O)C=C[C@]4(C)[C@@]3(F)[C@@H](O)C[C@]2(C)[C@@]1(O)C(=O)COC(=O)c1ccncc1", "measurement_target": "UISO", "outcome": "inactive"}
{"compound": "OC[C@]1(O)OC[C@@H](O)[C@H](O)[C@@H]1O", "measurement_target": "UISO", "outcome": "inactive"}
{"compound": "O=C(c1ccco1)N1CCNCC1", "measurement_target": "UISO", "outcome": "inactive"}

Input line: Fill blank: measured outcome of the compound O=C(Nc1ccc(S(=O)(=O)N2CCOCC2)cc1)c1cc(Cl)ccc1NS(=O)(=O)c1ccc(Cl)s1 is ____.
Output line: inactive

Input line: Fill blank: measured outcome of the compound CC1(C)S[C@@H]2[C@H](NC(=O)C(c3ccccc3)S(=O)(=O)O)C(=O)N2[C@H]1C(=O)O (some centres not stated) is ____.
Output line: inactive

Input line: Fill blank: measured outcome of the compound O=C1CC2(CCCC2)CC(=O)N1 is ____.
Output line: inactive

Input line: Fill blank: measured outcome of the compound CCOC(=O)C(=O)CCc1ccccc1 is ____.
Output line: inactive

Input line: Fill blank: measured outcome of the compound Cc1sccc1Br is ____.
Output line: inactive
